B1: RSPH3 (parent)
chain: VDVQTELYLEEIADRIIEVDMECQ

variants of: B1; assay: protein stability index of a GFP-peptide fusion (GPS, HEK-293T) (PSI 1-6); higher = more stable; settings: c terminus: a fixed tail appended;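 note: lentivirally expressed fusions sorted by FACS into six bins by GFP to DsRed ratio, PSI derived from sequencing read proportions per bin multiplied by bin number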
attribute.measured: protein stability index

[
  {
    "alteration": "T5H",
    "protein stability index": 2.42
  },
  {
    "alteration": "Q24M",
    "protein stability index": 1.59
  },
  {
    "alteration": "R15V",
    "protein stability index": 2.65
  },
  {
    "alteration": "Y8P",
    "protein stability index": 3.77
  },
  {
    "alteration": "Q24Y",
    "protein stability index": 2.69
  }
]

Problem: Please give the documented protein stability index of I17L
Result: 2.17

Problem: Please give the documented protein stability index of Q24L
Result: 1.33

Problem: Please give the documented protein stability index of V19N
Result: 4.1

Problem: Please give the documented protein stability index of V1N
Result: 3.75

Problem: Please give the documented protein stability index of I16V
Result: 3.37

Problem: Please give the documented protein stability index of V1P
Result: 3.11

Problem: Please give the documented protein stability index of L9T
Result: 4.38
